Taken from patent US20230233569A1.

# Target Under Test: KRAS G12S (Homo sapiens, UniProt P01116+P62937, G12S)
# Sequence (P01116 1-169 isoform P01116-2 G12S limits assumed, one chain of several): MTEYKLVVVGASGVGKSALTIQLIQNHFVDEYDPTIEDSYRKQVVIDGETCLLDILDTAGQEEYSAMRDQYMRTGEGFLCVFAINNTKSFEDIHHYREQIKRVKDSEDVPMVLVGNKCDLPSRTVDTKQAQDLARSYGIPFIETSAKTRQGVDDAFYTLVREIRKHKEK
# Procedure Details: Ras-Raf disruption / FRET / MOA assay (BRAF RBD)
# Assay type: biochemical
# Study Conditions: KRAS G12S FRET data IC50, Ras-Raf disruption, with Cyclophilin A
Property Label: IC50

For orientation, consider the following solved cases.
{"Compound": "CCn1c(-c2cnccc2COC)c2c3cc(ccc31)-c1cc(O)cc(c1)C[C@H](NC(=O)[C@H](C(C)C)N(C)C(=O)CN(C)C(=O)C1CN1)C(=O)N1CCC[C@H](N1)C(=O)OCC(C)(C)C2 (some centres unmarked)", "IC50": "> 10000 nM"}
{"Compound": "CCN1C[C@@H]1C(=O)N(C)CC(=O)N(C)[C@H](C(=O)N[C@H]1Cc2cc(O)cc(c2)-c2ccc3c(c2)c(c(-c2cccnc2[C@H](C)OC)n3CC)CC(C)(C)COC(=O)[C@@H]2CCCN(N2)C1=O)C1CCCC1 (some centres unmarked)", "IC50": "10 to 100 nM"}
{"Compound": "CCn1c(-c2cccnc2[C@H](C)OC)c2c3cc(ccc31)-c1cc(O)cc(c1)C[C@H](NC(=O)[C@H](C(C)C)N(C)C(=O)CN(C)C(=O)[C@@H]1CN1CCCN1CCCC1=O)C(=O)N1CCC[C@H](N1)C(=O)OCC(C)(C)C2 (some centres unmarked)", "IC50": "10 to 100 nM"}
{"Compound": "CCn1c(-c2cc(C3CCN(C)CC3)cnc2[C@H](C)OC)c2c3cc(ccc31)-c1cc(O)cc(c1)C[C@H](NC(=O)[C@H](C1CCCC1)N(C)C(=O)CN(C)C(=O)[C@H]1CN1)C(=O)N1CCC[C@H](N1)C(=O)OCC(C)(C)C2", "IC50": "10 to 100 nM"}
{"Compound": "CCn1c(-c2cccnc2[C@H](C)OC)c2c3cc(ccc31)-c1cc(O)cc(c1)C[C@H](NC(=O)[C@H](C(C)C)N(C)C(=O)[C@H]1CC[C@@H](C)N1C(=O)[C@H]1CN1)C(=O)N1CCC[C@H](N1)C(=O)OCC(C)(C)C2", "IC50": "100 to 1000 nM"}
{"Compound": "CCn1c(-c2cccnc2[C@H](C)OC)c2c3cc(ccc31)-c1cc(O)cc(c1)C[C@H](NC(=O)[C@H](C(C)C)N(C)C(=O)[C@H]1CCN1C(=O)[C@@H]1CN1)C(=O)N1CCC[C@H](N1)C(=O)OCC(C)(C)C2", "IC50": "10 to 100 nM"}
{"Compound": "CCn1c(-c2cccnc2[C@H](C)OC)c2c3cc(ccc31)-c1cc(O)cc(c1)C[C@H](NC(=O)[C@H](C(C)C)N(C)C(=O)CN(C)C(=O)[C@@H]1N[C@@H]1C1CCC1)C(=O)N1CCC[C@H](N1)C(=O)OCC(C)(C)C2", "IC50": "10 to 100 nM"}

Query compound follows.
Entry CCn1c(-c2cccnc2[C@H](C)OC)c2c3cc(ccc31)-c1cc(O)cc(c1)C[C@H](NC(=O)[C@H](C(C)C)N(C)C(=O)CN(C)C(=O)[C@@H]1CN1C1COC1)C(=O)N1CCC[C@H](N1)C(=O)OCC(C)(C)C2 (some centres unmarked) has what IC50?
10 to 100 nM

###

IC50 listing for selected compounds.
# Target Under Test: NRAS G12C (Homo sapiens, UniProt P01111+P62937, G12C)
# Sequence (P01111 whole entry G12C, one chain of several): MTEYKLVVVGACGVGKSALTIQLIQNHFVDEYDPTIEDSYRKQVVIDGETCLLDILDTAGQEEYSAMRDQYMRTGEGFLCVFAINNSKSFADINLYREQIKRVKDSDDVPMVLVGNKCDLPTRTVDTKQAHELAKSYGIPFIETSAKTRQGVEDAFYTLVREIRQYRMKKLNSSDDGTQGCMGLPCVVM
# Procedure Details: Ras-Raf disruption / FRET / MOA assay (BRAF RBD)
# Type: biochemical
# Study Conditions: NRAS G12C FRET data IC50, NRAS G12C

For orientation, consider the following solved cases.
{"Compound": "CCn1c(-c2cccnc2[C@H](C)OC)c2c3cc(ccc31)-c1cc(O)cc(c1)C[C@H](NC(=O)[C@H](C(C)C)N(C)C(=O)CN(C)C(=O)[C@@H]1CN1CCOC)C(=O)N1CCC[C@H](N1)C(=O)OCC(C)(C)C2 (stereo partly shown)", "Target Under Test": "NRAS G12C (Homo sapiens, UniProt P01111+P62937, G12C)", "Experimental Value": "< 0.01 µM"}
{"Compound": "CCn1c(-c2cccnc2[C@H](C)OC)c2c3cc(ccc31)-c1cc(O)cc(c1)C[C@H](NC(=O)[C@H](C(C)C)N(C)C(=O)CN(C)C(=O)[C@@H]1CN1CC(=O)N(C)C)C(=O)N1CCC[C@H](N1)C(=O)OCC(C)(C)C2 (stereo partly shown)", "Target Under Test": "NRAS G12C (Homo sapiens, UniProt P01111+P62937, G12C)", "Experimental Value": "< 0.01 µM"}
{"Compound": "CCn1c(-c2cccnc2[C@H](C)OC)c2c3cc(ccc31)-c1cc(O)cc(c1)C[C@H](NC(=O)[C@H](C(C)C)N(C)C(=O)CN(C)C(=O)[C@H]1CN1CC(=O)N(C)C)C(=O)N1CCC[C@H](N1)C(=O)OCC(C)(C)C2 (stereo partly shown)", "Target Under Test": "NRAS G12C (Homo sapiens, UniProt P01111+P62937, G12C)", "Experimental Value": "< 0.01 µM"}

Query compound follows.
Entry CCn1c(-c2cccnc2[C@H](C)OC)c2c3cc(ccc31)-c1cc(O)cc(c1)C[C@H](NC(=O)[C@H](C1CCCC1)N(C)C(=O)[C@@H](C)N(C)C(=O)[C@@H]1N[C@@H]1C1CC1)C(=O)N1CCC[C@H](N1)C(=O)OCC(C)(C)C2 has what IC50?
1 to 10 µM

###

IC50 listing for selected compounds.
# Target Under Test: KRAS G12D (Homo sapiens, UniProt P01116+P62937, G12D)
# Sequence (P01116 1-169 isoform P01116-2 G12D limits assumed): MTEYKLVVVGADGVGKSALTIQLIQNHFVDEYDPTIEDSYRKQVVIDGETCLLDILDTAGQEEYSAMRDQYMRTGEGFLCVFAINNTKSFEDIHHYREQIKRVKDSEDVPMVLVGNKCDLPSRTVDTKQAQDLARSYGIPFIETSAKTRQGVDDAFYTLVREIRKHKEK
# Sequence (P62937 whole entry): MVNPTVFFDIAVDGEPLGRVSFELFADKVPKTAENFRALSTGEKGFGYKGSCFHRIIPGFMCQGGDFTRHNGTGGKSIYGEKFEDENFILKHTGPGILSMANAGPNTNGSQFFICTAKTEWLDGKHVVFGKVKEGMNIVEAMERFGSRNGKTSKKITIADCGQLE
# Procedure Details: Disruption of BRAF RBD interaction with Ras (FRET / MOA assay, with Cyclophilin A)
# Type: biochemical
# Study Conditions: read-out: KRAS G12D FRET data, IC50
# Source text: This protocol may also be executed substituting other Ras proteins or nucleotides. The purpose of this biochemical assay was to measure the ability of test compounds to facilitate ternary complex formation between a nucleotide-loaded K-Ras isoform and Cyclophilin A; the resulting ternary complex disrupts binding to a BRAF^RBD construct, inhibiting K-Ras signaling through a RAF effector. Data is reported as IC50 values. […]

For orientation, consider the following solved cases.
{"Entry Smiles": "CCn1c(-c2cnccc2COC)c2c3cc(ccc31)-c1cc(O)cc(c1)C[C@H](NC(=O)[C@H](C(C)C)N(C)C(=O)OC1CN(C)C1)C(=O)N1CCC[C@H](N1)C(=O)OCC(C)(C)C2", "Target Under Test": "KRAS G12D (Homo sapiens, UniProt P01116+P62937, G12D)", "Experimental Value": "100 to 1000 nM"}
{"Entry Smiles": "CCn1c(-c2cnccc2COC)c2c3cc(ccc31)-c1cc(O)cc(c1)C[C@H](NC(=O)[C@@H](OC(=O)N(C)C)C(C)C)C(=O)N1CCC[C@H](N1)C(=O)OCC(C)(C)C2", "Target Under Test": "KRAS G12D (Homo sapiens, UniProt P01116+P62937, G12D)", "Experimental Value": "> 10000 nM"}

Entry CCN(CC)C1CN(C(=O)N(C)[C@H](C(=O)N[C@H]2Cc3nc(cs3)-c3ccc4c(c3)c(c(-c3cccnc3[C@H](C)OC)n4CC)CC(C)(C)COC(=O)[C@@H]3CCCN(N3)C2=O)C(C)C)C1 has what IC50?
1000 to 10000 nM

###

pIC50 listing for selected compounds.
# Target Under Test: KRAS G12D (Homo sapiens, UniProt P01116+P62937, G12D)
# Procedure Details: Disruption of BRAF RBD interaction with Ras (FRET / MOA assay, with Cyclophilin A)
# Assay type: biochemical
# Study Conditions: read-out: KRAS G12D FRET data, IC50
pIC50: −log10 of the molar value.

{"Compound": "CCn1c(-c2cccnc2COC)c2c3cc(ccc31)-c1cc(O)cc(c1)C[C@H](NC(=O)[C@H](C(C)C)N(C)C(=O)[C@H]1CCN(C(=O)C#CC(C)(C)N(C)C)C1)C(=O)N1CCC[C@H](N1)C(=O)OCC(C)(C)C2", "pIC50": "5.00 to 6.00"}
{"Compound": "CCn1c(-c2cccnc2COC)c2c3cc(ccc31)-c1cc(O)cc(c1)C[C@H](NC(=O)[C@H](C(C)C)N(C)C(=O)[C@H]1CCN(C(=O)/C=C\\CN(C)C)C1)C(=O)N1CCC[C@H](N1)C(=O)OCC(C)(C)C2", "pIC50": "5.00 to 6.00"}
{"Compound": "C=CC(=O)N1CC2(CCN([C@H](C(=O)N[C@H]3Cc4cc(O)cc(c4)-c4ccc5c(c4)c(c(-c4ccccc4CCOC)n5CC)CC(C)(C)COC(=O)[C@@H]4CCCN(N4)C3=O)C(C)C)C2=O)C1", "pIC50": "< 5.00"}
{"Compound": "CCn1c(-c2cccnc2[C@H](C)OC)c2c3cc(ccc31)-c1csc(n1)C[C@H](NC(=O)C1(F)COC1)C(=O)N1CCC[C@H](N1)C(=O)OCC(C)(C)C2", "pIC50": "5.00 to 6.00"}
{"Compound": "CCn1c(-c2cccnc2[C@H](C)OC)c2c3cc(ccc31)-c1csc(n1)C[C@H](NC(=O)[C@H](C(C)C)N(C)C(=O)N1C[C@H]3CN(C)C[C@H]31)C(=O)N1CCC[C@H](N1)C(=O)OCC(C)(C)C2", "pIC50": "5.00 to 6.00"}
{"Compound": "CCn1c(-c2cccnc2[C@@H]2CCCO2)c2c3cc(ccc31)-c1csc(n1)C[C@H](NC(=O)[C@H](C(C)C)N(C)C(=O)N1CC(N(C)C)C1)C(=O)N1CCC[C@H](N1)C(=O)OCC(C)(C)C2 (atropisomer, axis not shown)", "pIC50": "< 5.00"}
{"Compound": "CCn1c(-c2cccnc2[C@H](C)OC)c2c3cc(ccc31)-c1csc(n1)C[C@H](NC(=O)[C@H](C(C)C)N(C)C(=O)N1CCCC13CCOCC3)C(=O)N1CCC[C@H](N1)C(=O)OCC(C)(C)C2 (atropisomer, axis not shown)", "pIC50": "6.00 to 7.00"}
{"Compound": "C=CC(=O)N1CC[C@H](C(=O)N(C)[C@H](C(=O)N[C@H]2Cc3cc(O)cc(c3)-c3ccc4c(c3)c(c(C3=C(COC)CCCC3)n4CC)CC(C)(C)COC(=O)[C@@H]3CCCN(N3)C2=O)C(C)C)C1", "pIC50": "< 5.00"}
{"Compound": "CCn1c(-c2cccnc2[C@H](C)OC)c2c3cc(ccc31)-c1csc(n1)C[C@H](NC(=O)[C@H](C(C)C)N(C)C(=O)N(C)C1(COC)COC1)C(=O)N1CCC[C@H](N1)C(=O)OCC(C)(C)C2", "pIC50": "5.00 to 6.00"}
{"Compound": "CCn1c(-c2cccnc2[C@H](C)OC)c2c3cc(ccc31)-c1csc(n1)C[C@H](NC(=O)[C@H](C(C)C)N(C)C(=O)N1CC([C@H](C)CO)C1)C(=O)N1CCC[C@H](N1)C(=O)OCC(C)(C)C2 (atropisomer, axis not shown)", "pIC50": "6.00 to 7.00"}

Give recorded pIC50 with KRAS G12D (Homo sapiens, UniProt P01116+P62937, G12D) for the following compound: C=CC(=O)N1CC[C@H](C(=O)N(C)[C@H](C(=O)N[C@H]2Cc3cc(O)cc(c3)-c3ccc4c(c3)c(c(-c3cncnc3)n4CC)CC(C)(C)COC(=O)[C@@H]3CCCN(N3)C2=O)C(C)C)C1
< 5.00

Give recorded pIC50 with KRAS G12D (Homo sapiens, UniProt P01116+P62937, G12D) for the following compound: CCn1c(-c2cccnc2COC)c2c3cc(ccc31)-c1cc(O)cc(c1)C[C@H](NC(=O)[C@H](C(C)C)N(C)C(=O)[C@H]1CCN(C(=O)C#CCN3CCOCC3)C1)C(=O)N1CCC[C@H](N1)C(=O)OCC(C)(C)C2
< 5.00

Give recorded pIC50 with KRAS G12D (Homo sapiens, UniProt P01116+P62937, G12D) for the following compound: CCn1c(-c2cccnc2[C@H](C)OC)c2c3cc(ccc31)-c1cc(O)cc(c1)C[C@H](NC(=O)[C@H](C(C)C)N(C)C(=O)Cc1cc[nH]n1)C(=O)N1CCC[C@H](N1)C(=O)OCC(C)(C)C2
6.00 to 7.00

Give recorded pIC50 with KRAS G12D (Homo sapiens, UniProt P01116+P62937, G12D) for the following compound: C=CC(=O)N1CCN(C(=O)N(C)[C@H](C(=O)N[C@H]2Cc3cc(O)cc(c3)-c3ccc4c(c3)c(c(-c3ccccc3CCOC)n4CC)CC(C)(C)COC(=O)[C@@H]3CCCN(N3)C2=O)C(C)C)CC1
< 5.00

Give recorded pIC50 with KRAS G12D (Homo sapiens, UniProt P01116+P62937, G12D) for the following compound: CCn1c(-c2cccnc2[C@H](C)OC)c2c3cc(ccc31)-c1cccc(c1)C[C@H](NC(=O)[C@H](C(C)C)N1CC[C@]3(CCN(C(=O)C#C[C@]4(N(C)C)CCOC4)C3)C1=O)C(=O)N1CCC[C@H](N1)C(=O)OCC(C)(C)C2
5.00 to 6.00

Give recorded pIC50 with KRAS G12D (Homo sapiens, UniProt P01116+P62937, G12D) for the following compound: CCn1c(-c2cccnc2[C@H](C)OC)c2c3cc(ccc31)-c1csc(n1)C[C@H](NC(=O)[C@H](C(C)C)N(C)C(=O)N1CC(N3CCCC3)C1)C(=O)N1CCC[C@H](N1)C(=O)OCC(C)(C)C2
5.00 to 6.00

Give recorded pIC50 with KRAS G12D (Homo sapiens, UniProt P01116+P62937, G12D) for the following compound: C=CC(=O)N1CC[C@H](C(=O)N(C)[C@H](C(=O)N[C@H]2Cc3cc(O)cc(c3)-c3ccc4c(c3)c(c(-c3ccc(CC(=O)O)cc3)n4CC)CC(C)(C)COC(=O)[C@@H]3CCCN(N3)C2=O)C(C)C)C1
< 5.00
